- Tested on: SF-268 CNS
- assayName: NCI-60 one-dose screen, 48 h (100 = growth as untreated, 0 = no growth, -100 = all killed)
- conditionSummary: 10 µM unless noted
- Description: Cells are grown in 96 well plates and exposed to the test compound for 48 hours. Compounds are tested at a single concentration, which is 10^-5 M for most compounds. The reported endpoint is percent growth (GI% or GIPRCNT), where numbers from 0 - 100% represent growth inhibition, and numbers from -100% - 0 represent cell death. For example, a value of 40 represents 60% growth inhibition. A value of 0 means no net growth occurred over the course of the experiment. […]
About 83,000 compounds went through this panel and 20% of them were active in at least one assay; those are over-represented in the sample as a whole.
Entry class follows growth: low (below 60%), moderate (60% to below 90%), high (90% or more)

Into which bin does this compound go? `C=C(C)C(=O)O[C@H]1C[C@@]2(C)OC(=CC2=O)[C@H](C)[C@H](O)[C@H]2OC(=O)C(=C)[C@@H]21`
moderate

Into which bin does this compound go? `O=C1/C(=C/c2ccc([N+](=O)[O-])cc2)SC(=Nc2ccccc2)N1Nc1ccccc1`
moderate

Into which bin does this compound go? `O=C(Cn1cc(CN2C(=O)c3ccc([N+](=O)[O-])cc3C2=O)nn1)Nc1ccccc1Br`
high

Into which bin does this compound go? `O=C(CCCCCCN1CC(=O)N2[C@@H](c3cccc(Cl)c3)c3[nH]c4ccccc4c3C[C@H]2C1=O)NO`
moderate

Into which bin does this compound go? `COc1cc(O)c2c(c1)[C@H]1O[C@@H]1C[C@H](O)[C@H](O)C(=O)/C=C\C[C@H](C)OC2=O`
moderate

Into which bin does this compound go? CCOC(=O)/C(F)=C/C1CC1CCc1cccc(C(F)(F)F)c1 (stereo not drawn)
high

Into which bin does this compound go? COC[C@@]1(C)CC[C@]2(C)CC[C@]3(C)C(=CC[C@@H]4[C@@]5(C)CCCNC(C)(C)[C@@H]5CC[C@]43C)C2C1 (stereo partly drawn)
moderate

Into which bin does this compound go? `Oc1ccc(CSc2nnc(-c3ccc(Oc4ccccc4)cc3)o2)c2cccnc12`
low

Into which bin does this compound go? `Oc1ccc(CSc2nnc(-c3ccc(Cl)cc3)o2)c2cccnc12`
low

Into which bin does this compound go? `Cc1ccc(-c2nnc3sc(C4=Cc5ccccc5OC=C4)nn23)cc1`
high

Into which bin does this compound go? `COc1cccc(/C=C/C(=O)c2ccc(NC(=O)COc3cccc4cccnc34)cc2)c1`
high

Into which bin does this compound go? `CN1CCN(Cc2ccc(NC(=O)c3cncc(C#Cc4cnc5ccc(O[C@H]6CCOC6)nn45)c3)cc2C(F)(F)F)CC1`
low

Into which bin does this compound go? CCOC(=O)CC(=O)CSC1=NC2C(NN1)N(C)C(=O)N2C (stereo not drawn)
high

Into which bin does this compound go? `COc1cc(CNC(=O)/C=C/c2ccccc2)ccc1OCC(=O)NO`
high

Into which bin does this compound go? `Cn1c2ccccc2c2c3c(c4c5ccc(Br)cc5oc4c21)C(=O)N(O)C3=O`
moderate

Into which bin does this compound go? `CC1=CC(=O)CC(C)(C)[C@@]1(O)/C=C/C(C)=C\C(=O)O`
low

Into which bin does this compound go? CCN1C(=O)N(CC)C2SC(N/N=C/c3ccccc3F)=NC21 (stereo not drawn)
low

Into which bin does this compound go? `O=[N+]([O-])c1ccc(-c2nnc(SCc3ccc(O)c4ncccc34)o2)cc1`
low

Into which bin does this compound go? `O=C1/C(=C/c2ccccc2[N+](=O)[O-])Oc2ccc(O)cc21`
moderate

Into which bin does this compound go? `COc1ccc(/C=C/C(=O)c2nnn(-c3ccc(C(=O)O)cc3)c2C)cc1OC`
high

Into which bin does this compound go? `CCCCOc1ccc(S(=O)(=O)N2CCN(c3nccc(N4CCOCC4)n3)CC2)cc1`
low

Into which bin does this compound go? `CN1CCN(c2nc(-c3cnc4ccccc4n3)cc3ccccc23)CC1`
moderate

Into which bin does this compound go? `CCOC(=O)c1ccc(N/C=C/C(=O)c2ccccc2)cc1`
high

Into which bin does this compound go? `N/C(=N\c1nc2c(Cl)cccc2s1)C(Cl)(Cl)Cl`
moderate

Into which bin does this compound go? CC(C)=CCc1c2c(c(O)c3c1O[C@]14C(=C[C@@H]5C[C@H]1C(C)(C)O[C@@]4(C/C=C(/C)C(=O)O)C5=O)C3=O)CC(O)C(C)(C)O2 (stereo partly drawn)
low

Into which bin does this compound go? `Cn1nc(Nc2ccccc2)c(C(=O)NN)c1N`
high

Into which bin does this compound go? `Oc1ccccc1/C=N/Nc1nc(N/N=C/c2ccccc2O)nc(N2CCOCC2)n1`
moderate

Into which bin does this compound go? `Oc1ccc(CSc2nnc(-c3ccc(Oc4ccccc4)cc3)n2-c2ccccc2)c2cccnc12`
low

Into which bin does this compound go? `C#CCOc1ccc(/C=N/Nc2nc(-c3cc4cc(Br)cc(Br)c4oc3=O)cs2)cc1`
moderate

Into which bin does this compound go? `Cc1nn(-c2ccc(Br)cc2)c2nc(CCl)[nH]c(=O)c12`
high

Into which bin does this compound go? `C=C1C(=O)O[C@@H]2/C=C(/C)C3=CC(=O)[C@@](C)(C[C@H](OC(=O)/C(C)=C\C)[C@@H]12)O3`
low

Into which bin does this compound go? `COc1cc(/C=N/n2cnc3oc(-c4ccccc4)cc3c2=N)cc(CN2CCCCC2)c1O`
low

----------
- Test system: ACHN renal
- assayName: NCI-60 one-dose screen, 48 h
- conditionSummary: 10 µM unless noted
About 83,000 compounds went through this panel and 20% of them were active in at least one assay; those are over-represented in the sample as a whole. Activity calls are given as the source filed them. The calls were made as follows: active = growth percent below 10; inactive = the rest.
Lab note: assign the record to one of active, inactive

Given `O=C(NNc1nc2cc(F)cc(F)c2n2cccc12)c1ncccn1` , state the outcome it received in this test.
active

Given `COc1cc(NC2=C(Cl)C(=O)c3nc(C)ccc3C2=O)cc(OC)c1` , state the outcome it received in this test.
active

Given `COCCOc1ccc(-c2csc(NC(=O)CN3CCN(CCO)CC3)n2)cc1NS(=O)(=O)c1cccc2c(N(C)C)cccc12` , state the outcome it received in this test.
inactive

Given `CC(C)=CCc1c(O)c(CC=C(C)C)c2c(c1O)C(=O)C1=C[C@@H]3C[C@H]4C(C)(C)O[C@@](C/C=C(\C)C(=O)O)(C3=O)[C@@]14O2` , state the outcome it received in this test.
active

Given `CCN(CC)CCN1C(=O)c2c(c3c4cc(Br)ccc4[nH]c3c3ccc4ccccc4c23)C1=O` , state the outcome it received in this test.
active

Given `COc1ccc(CCN2C(=O)CSC2=S)cc1OC` , state the outcome it received in this test.
inactive

Given `O=C(CN1C(=O)CSC1=O)Nc1ccc(C(=O)/C=C/c2cc3ccccc3nc2Cl)cc1` , state the outcome it received in this test.
inactive

Given `COc1ccc(NC(=O)Cn2cc(CN3C(=O)c4ccc([N+](=O)[O-])cc4C3=O)nn2)cc1` , state the outcome it received in this test.
inactive

Given CC1(C)CC[C@]2(C(=O)O)CC[C@]3(C)C(=CCC4[C@@]5(C)C[C@@H](O)[C@@H]6OC(c7cccc([N+](=O)[O-])c7)OC[C@@]6(C)C5CC[C@]43C)C2C1 (stereo not given in full) , state the outcome it received in this test.
inactive

Given `O=C(O)c1ccc(-n2cc(CNc3ccc(Cl)cc3)c(-c3ccc(F)cc3)n2)cc1` , state the outcome it received in this test.
inactive

Given `O=[N+]([O-])c1ccc(-c2nnc(SCc3ccc(O)c4ncccc34)n2-c2ccccc2)cc1` , state the outcome it received in this test.
inactive

Given `O=C(CSc1nnc(-c2cccs2)n1-c1ccccc1)Nc1ccc(F)cc1` , state the outcome it received in this test.
inactive

Given `COc1cc2cc(Oc3ccc(NC(=O)Nc4cccc(C(F)(F)F)c4)cc3)c(C)nc2cc1OCCN(C)C` , state the outcome it received in this test.
inactive

Given `CS(=O)(=O)c1nccc(-c2c(-c3ccc(F)c(OCCc4ccccc4)c3)nc3sccn23)n1` , state the outcome it received in this test.
inactive

Given `CC(=O)NC(C)(C)C(=O)N[C@@H](C)C(=O)NC(C)(C)C(=O)N[C@@H](C)C(=O)NC(C)(C)C(=O)N[C@@H](C)C(=O)N[C@@H](CCC(N)=O)C(=O)NC(C)(C)C(=O)N[C@H](C(=O)NC(C)(C)C(=O)NCC(=O)N[C@@H](CC(C)C)C(=O)NC(C)(C)C(=O)N1CCC[C@H]1C(=O)N[C@H](C(=O)NC(C)(C)C(=O)NC(C)(C)C(=O)N[C@@H](CCC(N)=O)C(=O)N[C@@H](CCC(N)=O)C(=O)N[C@H](CO)CC1CCCCC1)C(C)C)C(C)C` , state the outcome it received in this test.
inactive

----------
- Test system: NCI-H226 lung
- assayName: NCI-60 one-dose screen, 48 h (100 = growth as untreated, 0 = no growth, -100 = all killed)
- conditionSummary: 10 µM unless noted
The panel holds about 83,000 compounds, 20% with a hit somewhere; the sample as a whole holds those more often.
// label = class 1 if growth is not less than 50%, otherwise class 0

# check: growth of `Cc1cc(F)cc(NS(=O)(=O)c2ccc(-c3cnc(C4CC4)o3)cc2)c1` is greater than or equal to 50%
class 1

# check: growth of `Oc1ccccc1-c1nnc(SCc2ccc(O)c3ncccc23)n1-c1ccccc1` is greater than or equal to 50%
class 0

# check: growth of `CN1CCN(c2ccc(C(=O)/C=C/c3ccc(Cl)c(C(F)(F)F)c3)cc2)CC1` is greater than or equal to 50%
class 1

# check: growth of `Cc1ccc(-c2cc(-c3cccc4ccccc34)n3c(n2)nc2ccccc23)cc1` is greater than or equal to 50%
class 1

# check: growth of `O=c1cc(-c2ccccc2)nc2sc(-c3c[nH]c4ccc(F)cc34)nn12` is greater than or equal to 50%
class 0

# check: growth of `CCOC(=O)c1nn(-c2ccc(C)cc2)c(=O)c2c(N)c(C#N)c(-c3ccc(OC)cc3)cc12` is greater than or equal to 50%
class 1

# check: growth of `c1ccc(-c2c(-c3ccccc3)[n+](Cc3ccc4ccccc4c3)c(-c3ccccc3)n2Cc2ccc3ccccc3c2)cc1` is greater than or equal to 50%
class 0

# check: growth of `COc1ccc(NC(=O)Cn2cc(CN3C(=O)c4ccc([N+](=O)[O-])cc4C3=O)nn2)cc1` is greater than or equal to 50%
class 1

# check: growth of `COc1cc2c3c(n(CCCN4CCC[C@H]4C(N)=O)c(=O)c2cc1OC)-c1cc2c(cc1C3=O)OCO2` is greater than or equal to 50%
class 0

# check: growth of `CC(C)C(=O)Nc1ccc(-c2nc(-c3cccc(O)c3)c(-c3ccnc(Br)c3)[nH]2)cc1` is greater than or equal to 50%
class 1

# check: growth of `O=C(/C=C1\C=CN(CCCCCCF)c2ccccc21)n1ccc2ccccc21` is greater than or equal to 50%
class 0

# check: growth of O=S(=O)(NC1CC2CCC1C2)c1ccc2c(c1)C(=NO)c1cc(S(=O)(=O)NC3CC4CCC3C4)ccc1-2 (stereo not given) is greater than or equal to 50%
class 1

# check: growth of `COc1ccc(-c2nnc(/N=C3/C(=O)Nc4ccc(Br)cc43)o2)cc1` is greater than or equal to 50%
class 1

# check: growth of `C=CCn1c(SCC(=O)Nc2cccc(C(=O)/C=C/c3ccc(Br)cc3)c2)nc2ccccc2c1=O` is greater than or equal to 50%
class 1

# check: growth of `Oc1ccc(-c2nnc(SCc3ccc(O)c4ncccc34)o2)cc1` is greater than or equal to 50%
class 0

# check: growth of `CCOC(=O)c1c(NC(=O)c2ccc(F)cc2F)sc2c1CCC(=O)C2` is greater than or equal to 50%
class 1

# check: growth of `Clc1ccc(-c2nc3ccc(/C(=N\N=C\c4ccccc4)c4ccccc4)cc3[nH]2)cc1` is greater than or equal to 50%
class 1

# check: growth of `COc1cc(C(=O)C[n+]2ccc3ccccc3c2)cc(OC)c1OC` is greater than or equal to 50%
class 1

# check: growth of `Nc1n[nH]c2cccc(C#Cc3cccc(NC(=O)c4cccc(OC(F)(F)F)c4)c3)c12` is greater than or equal to 50%
class 0

These measurements were taken from PubChem BioAssay (NCI).
